Tested System: PTPN2 (HiBIT-PTPN2 in 293T.109 cells) (Homo sapiens)
Construct: expressed in transfected cells; host or cells: 293T.109 (293T WT from ATCC)
Assay Details: HiBiT Degradation 293T.109 PTPN2 (Nano-Glo HiBiT Lytic Assay)
Assay type: cell-based
Experimental Parameters: 24.0 hours
Description: Dulbecco's modified Eagle medium (DMEM) without phenol red and fetal bovine serum (FBS) were purchased from Gibco (Grand Island, NY, USA). Nano-Glo® HiBIT Lytic Assay System was purchased from Promega (Madison, WI, USA). […] PTPN2 degradation was determined based on quantification of luminescent signal using Nano-Glo® HiBIT Lytic Assay kit. […] Luminescence was acquired on EnVision™ Multilabel Reader (PerkinElmer, Santa Clara, CA, USA).
The entries below come with measured DC50 values attached.

1. Cn1c(=O)n(C2CCC(=O)NC2=O)c2ccc(C3CCN(C(=O)Nc4cc(CS(=O)(=O)N5CCC(Nc6cccc(-c7sc(C(=O)O)c(OCC(=O)O)c7Cl)c6)CC5(C)C)ccc4F)CC3)cc21 (stereo not drawn) [Example 114] :: 50 to 200 nM

Prompt line: # DC50 lookup, item O=C(O)COc1c(C(=O)O)sc(-c2cccc(NC3CCN(S(=O)(=O)Cc4ccc(F)c(NC(=O)C5CN(C(=O)COc6cccc7c6CN(C6CCC(=O)NC6=O)C7=O)C5)c4)CC3)c2)c1Cl (stereo not drawn) [Example 93]
Response line: 50 to 200 nM

Prompt line: And the next one, Cn1c(=O)n(C2CCC(=O)NC2=O)c2ccc(Nc3ccc(C(=O)Nc4cccc(CS(=O)(=O)N5CC[C@H](Nc6cccc(-c7sc(C(=O)O)c(OCC(=O)O)c7Cl)c6)CC5(C)C)c4)cc3)cc21 (stereo partly drawn) [Example 144] ?
Response line: < 50 nM

###

Tested System: PTPN2 (HiBIT-PTPN2 in 293T.109 cells) (Homo sapiens, UniProt P17706)
Construct: expressed in transfected cells; host or cells: 293T.109 (293T WT from ATCC)
Sequence (P17706 1-415): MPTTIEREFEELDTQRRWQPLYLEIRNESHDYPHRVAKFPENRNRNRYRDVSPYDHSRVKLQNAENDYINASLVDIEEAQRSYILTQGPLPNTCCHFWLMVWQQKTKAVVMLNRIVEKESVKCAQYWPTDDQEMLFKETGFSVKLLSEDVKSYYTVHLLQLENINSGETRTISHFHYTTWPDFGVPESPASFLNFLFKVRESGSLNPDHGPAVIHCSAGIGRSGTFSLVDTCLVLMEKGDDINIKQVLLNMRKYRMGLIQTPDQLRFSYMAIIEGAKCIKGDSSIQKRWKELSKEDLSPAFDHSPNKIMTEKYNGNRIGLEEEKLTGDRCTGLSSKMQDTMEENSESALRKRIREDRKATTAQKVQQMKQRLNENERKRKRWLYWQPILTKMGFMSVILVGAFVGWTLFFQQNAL
Assay Details: HiBiT Degradation 293T.109 PTPN2 (Nano-Glo HiBiT Lytic Assay)
Format: cell-based
Experimental Parameters: 24.0 hours
Parameter Measured: DC50

1. CC1(C)C[C@@H](Nc2cccc(-c3sc(C(=O)O)c(OCC(=O)O)c3Cl)c2)CCN1S(=O)(=O)Cc1cccc(NC(=O)CN2CCC(c3ccc4c5c(cccc35)C(=O)N4C3CCC(=O)NC3=O)CC2)c1 (stereo partly drawn) :: < 0.05 µM
2. CC1(C)C[C@@H](Nc2cccc(-c3sc(C(=O)O)c(OCC(=O)O)c3Cl)c2)CCN1S(=O)(=O)Cc1cccc(NC(=O)CCN2CCC(Oc3cccc4c3CN(C3CCC(=O)NC3=O)C4=O)CC2)c1 (stereo partly drawn) :: ≥ 1 µM
3. CC1(C)C[C@@H](Nc2cccc(-c3sc(C(=O)O)c(OCC(=O)O)c3Cl)c2)CCN1S(=O)(=O)Cc1cccc(NC(=O)C2CCN(C(=O)CCc3cccc4c3CN(C3CCC(=O)NC3=O)C4=O)CC2)c1 (stereo partly drawn) :: 0.2 to 1 µM

Prompt line: # DC50 lookup, item CC1(C)C[C@@H](Nc2cccc(-c3sc(C(=O)O)c(OCC(=O)O)c3Cl)c2)CCN1S(=O)(=O)Cc1cccc(NC(=O)OC2CCN(C(=O)CNc3cccc4c3CN(C3CCC(=O)NC3=O)C4=O)CC2)c1 (stereo partly drawn)
Response line: 0.05 to 0.2 µM

Prompt line: And the next one, Cn1c(=O)n(C2CCC(=O)NC2=O)c2ccc(N3CCC(OCC(=O)Nc4cccc(CS(=O)(=O)N5CC[C@H](Nc6cccc(-c7sc(C(=O)O)c(OCC(=O)O)c7Cl)c6)CC5(C)C)c4)CC3)cc21 (stereo partly drawn) ?
Response line: 0.05 to 0.2 µM

###

The entries below come with measured DC50 values attached.
Tested System: PTPN2 (HiBIT-PTPN2 in 293T.109 cells) (Homo sapiens)
Construct: expressed in transfected cells; host or cells: 293T.109 (293T WT from ATCC)
Assay Details: HiBiT Degradation 293T.109 PTPN2 (Nano-Glo HiBiT Lytic Assay)
Type: cell-based
Experimental Parameters: 24.0 hours

In the examples that follow, each entry is paired with its recorded DC50.
1) Cn1c(=O)n(C2CCC(=O)NC2=O)c2ccc(C3CCN(C(=O)Nc4cccc(CS(=O)(=O)N5CC[C@@H](Oc6cccc(-c7sc(C(=O)O)c(OCC(=O)O)c7Cl)c6)CC5(C)C)c4)CC3)cc21 (stereo partly shown) :: 200 to 1000 nM
2) CC1(C)C[C@H](Nc2cccc(-c3sc(C(=O)O)c(OCC(=O)O)c3Cl)c2)CCN1S(=O)(=O)Cc1ccc(F)c(NC(=O)C2CN(C(=O)CNc3cccc4c3CN(C3CCC(=O)NC3=O)C4=O)C2)c1 (stereo partly shown) :: 50 to 200 nM
3) Cn1c(=O)n(C2CCC(=O)NC2=O)c2ccc([C@H]3CCN(C(=O)Nc4cccc(CS(=O)(=O)N5CC[C@H](Nc6cccc(-c7sc(C(=O)O)c(OCC(=O)O)c7Cl)c6)CC5(C)C)c4)C[C@@H]3F)cc21 (stereo partly shown) :: < 50 nM
4) O=C(O)COc1c(C(=O)O)sc(-c2cccc(NC3CCN(S(=O)(=O)Cc4cccc(NC(=O)C5CCN(C(=O)CNc6cccc7c6C(=O)N(C6CCC(=O)NC6=O)C7=O)CC5)c4)CC3)c2)c1Cl (stereo not shown) :: 200 to 1000 nM

Prompt line: # DC50 lookup, item CC1(C)C[C@@H](Nc2cccc(-c3sc(C(=O)O)c(OCC(=O)O)c3Cl)c2)CCN1S(=O)(=O)Cc1cccc(NC(=O)C2C[C@@H]3CN(C(=O)COc4cccc5c4CN(C4CCC(=O)NC4=O)C5=O)C[C@@H]3C2)c1 (stereo partly shown)
Response line: 200 to 1000 nM

Prompt line: And the next one, CC1(C)C[C@@H](Nc2cccc(-c3sc(C(=O)O)c(OCC(=O)O)c3Cl)c2)CCN1S(=O)(=O)Cc1cccc(NC(=O)N2CCC(c3ccc4c5c(cccc35)C(=O)N4[C@H]3CCC(=O)NC3=O)CC2)c1 (single isomer, unassigned) [Example 187b] ?
Response line: < 50 nM

Prompt line: And the next one, Cn1c(=O)n(C2CCC(=O)NC2=O)c2ccc([C@@H]3CCN(C(=O)Nc4cccc(CS(=O)(=O)N5CC[C@H](Nc6cccc(-c7sc(C(=O)O)c(OCC(=O)O)c7Cl)c6)CC5(C)C)c4)CC3(F)F)cc21 (stereo partly shown) ?
Response line: < 50 nM

###

Tested System: PTPN2 (HiBIT-PTPN2 in 293T.109 cells) (Homo sapiens, UniProt P17706)
Construct: expressed in transfected cells; host or cells: 293T.109 (293T WT from ATCC)
Assay Details: HiBiT Degradation 293T.109 PTPN2 (Nano-Glo HiBiT Lytic Assay)
Format: cell-based
Experimental Parameters: 24.0 hours
The entries below come with measured DC50 values attached.

In the examples that follow, each entry is paired with its recorded DC50.
1) CC1(C)C[C@@H](Nc2cccc(-c3sc(C(=O)O)c(OCC(=O)O)c3Cl)c2)CCN1S(=O)(=O)Cc1cccc(NC(=O)CCC(=O)NCc2ccc3c4c(cccc24)C(=O)N3C2CCC(=O)NC2=O)c1 (some centres unmarked) :: 50 to 200 nM
2) CC1(C)C[C@@H](Nc2cccc(-c3sc(C(=O)O)c(OCC(=O)O)c3Cl)c2)CCN1S(=O)(=O)Cc1cccc(NC(=O)COc2cccc3c2CN(C2CCC(=O)NC2=O)C3=O)c1 (some centres unmarked) :: 200 to 1000 nM

Prompt line: # DC50 lookup, item CC1(C)C[C@@H](Nc2cccc(-c3sc(C(=O)O)c(OCC(=O)O)c3Cl)c2)CCN1S(=O)(=O)Cc1cccc(NC(=O)C2CCN(C(=O)CNc3cccc4c3C(=O)N(C3CCC(=O)NC3=O)C4=O)CC2)c1 (some centres unmarked)
Response line: 50 to 200 nM

Prompt line: And the next one, COCCn1c(=O)n(C2CCC(=O)NC2=O)c2ccc(C3CCN(C(=O)Nc4cccc(CS(=O)(=O)N5CC[C@H](Nc6cccc(-c7sc(C(=O)O)c(OCC(=O)O)c7Cl)c6)CC5(C)C)c4)CC3)cc21 (some centres unmarked) ?
Response line: 50 to 200 nM

Prompt line: And the next one, Cn1c(=O)n(C2CCC(=O)NC2=O)c2ccc([C@H]3CC[C@@H](C(=O)Nc4cccc(CS(=O)(=O)N5CC[C@H](Nc6cccc(-c7sc(C(=O)O)c(OCC(=O)O)c7Cl)c6)CC5(C)C)c4)CC3)cc21 (some centres unmarked) ?
Response line: < 50 nM
